src = patent US20220324865A1

- Assayed System: human EP3 receptor (Homo sapiens)
- Test Details: Cellular in vitro assay for determining EP3 receptor activity (human EP3 cell line, sulprostone-stimulated calcium luminescence)
- Assay Context: CHO cells expressing human EP3 and mitochondrial Clytin; antagonist mode, sulprostone at EC50; read-out: EP3 CHO mtCLY ANTAG IC50
pIC50: −log10 of the molar value.
Reported Property: pIC50

Use the examples below as a reference point.
| Sample Smiles | pIC50 |
| --- | --- |
| O=C(N[C@H](CCO)c1ccc(F)cc1)c1cc2c(=O)[nH]c(-c3ccc4c(c3)COCC4)cn2n1 | 8.14 |
| CCn1nccc1CNC(=O)c1nn2c(C)c(-c3ccc4ccccc4c3)[nH]c(=O)c2c1C | 8.85 |

a: O=C(N[C@H](CCO)c1ccc(F)cc1)c1cc2c(=O)[nH]c(-c3ccc4c(c3)CCC4)cn2n1
b: Cc1cc(-c2cn3nc(C(=O)N[C@@H](c4ccc(F)cc4)[C@H](O)C(F)(F)F)c(C4CC4)c3c(=O)[nH]2)ccc1Cl
When their pIC50 values are compared, which is larger, a or b ? Respond using the label that marks the chosen record.
a

* * *

- Assayed System: human EP3 receptor (Homo sapiens)
- Test Details: Cellular in vitro assay for determining EP3 receptor activity (human EP3 cell line, sulprostone-stimulated calcium luminescence)
- Assay Context: CHO cells expressing human EP3 and mitochondrial Clytin; antagonist mode, sulprostone at EC50; read-out: EP3 CHO mtCLY ANTAG IC50
pIC50: −log10 of the molar value.
Reported Property: pIC50

Previously resolved entries follow.
| Compound | pIC50 |
| --- | --- |
| Cc1ccc(-c2cn3nc(C(=O)N[C@@H](c4ccc(F)cc4)C(C)(C)O)c(C4CC4(F)F)c3c(=O)[nH]2)cc1Cl (stereo partly shown) | 8.54 |
| CC(C)(O)[C@@H](NC(=O)c1cc2c(=O)[nH]c(-c3ccc4c(c3)CCC4)cn2n1)c1ccc(F)cc1 | 8.24 |
| N#Cc1c(C(=O)N[C@@H]2CCCc3ccccc32)nn2cc(-c3ccc4ccccc4c3)[nH]c(=O)c12 | 8.26 |
| Cc1ccc(-c2cn3nc(C(=O)NC4(c5ccc(F)cc5)CC4)cc3c(=O)[nH]2)cc1C | 8.69 |

I: O=C(N[C@@H](c1ccc(F)cc1)C(F)(F)CO)c1nn2cc(-c3cccc(Cl)c3)[nH]c(=O)c2c1C1CC1
II: O=C(N[C@H](CCO)c1ccc(F)cc1)c1nn2cc(-c3ccc4ccccc4c3)[nH]c(=O)c2c1Cl
From the recorded data, which exceeds the other in pIC50: I or II ? When you have decided, please share the label of that item.
II
(II: 9.31, I: 8.28)

* * *

- Assayed System: human EP3 receptor (Homo sapiens, UniProt P43115)
- Sequence (P43115 whole entry): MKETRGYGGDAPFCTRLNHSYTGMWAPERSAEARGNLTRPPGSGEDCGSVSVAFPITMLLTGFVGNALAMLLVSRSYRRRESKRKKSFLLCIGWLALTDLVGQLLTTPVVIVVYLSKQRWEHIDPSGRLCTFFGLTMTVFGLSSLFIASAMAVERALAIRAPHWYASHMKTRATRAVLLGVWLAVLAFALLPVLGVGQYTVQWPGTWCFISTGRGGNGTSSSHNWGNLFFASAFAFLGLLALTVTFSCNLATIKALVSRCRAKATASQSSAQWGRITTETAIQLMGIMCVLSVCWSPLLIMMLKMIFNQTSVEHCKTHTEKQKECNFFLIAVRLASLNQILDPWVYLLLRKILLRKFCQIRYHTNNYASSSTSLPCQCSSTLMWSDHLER
- Test Details: Cellular in vitro assay for determining EP3 receptor activity (human EP3 cell line, sulprostone-stimulated calcium luminescence)
- Assay Context: CHO cells expressing human EP3 and mitochondrial Clytin; antagonist mode, sulprostone at EC50; read-out: EP3 CHO mtCLY ANTAG IC50
Reported Property: IC50 (nM)

| Compound | Measure Unit | IC50 |
| --- | --- | --- |
| Cc1ccc(-c2cn3nc(C(=O)NCC(N)C(F)(F)F)c(C(F)(F)F)c3c(=O)[nH]2)cc1C (racemic) | nM | 5.6 |
| Cc1cc(-c2cn3nc(C(=O)NC4CC(F)(F)C4)c(C(F)(F)F)c3c(=O)[nH]2)ccc1Cl | nM | 7.4 |
| Cc1ccc(-c2cn3nc(C(=O)NC4(c5ccc(F)cc5)CC4)cc3c(=O)[nH]2)cc1C(F)(F)F | nM | 5 |

P: Cc1ccc(-c2cn3nc(C(=O)NC(C)COc4cc(Cl)cc(Cl)c4)cc3c(=O)[nH]2)cc1C (stereo not shown)
Q: CC(C)(O)[C@@H](NC(=O)c1nn2cc(-c3ccc(Cl)c(F)c3)[nH]c(=O)c2c1C1CCC1)c1ccc(F)cc1
R: Cc1ccc(-c2cn3nc(C(=O)N[C@H](C)c4ccc(F)cc4)cc3c(=O)[nH]2)cc1C
Sort entries by IC50 from minimum to maximum value. Returns: the labels arranged in the requested order.
R, Q, P
(R: 1.2 nM, Q: 2.8 nM, P: 7.95 nM)
